Biological target: sclerostin (UniProt Q9BQB4 24-213)
Sequence (Q9BQB4 24-213): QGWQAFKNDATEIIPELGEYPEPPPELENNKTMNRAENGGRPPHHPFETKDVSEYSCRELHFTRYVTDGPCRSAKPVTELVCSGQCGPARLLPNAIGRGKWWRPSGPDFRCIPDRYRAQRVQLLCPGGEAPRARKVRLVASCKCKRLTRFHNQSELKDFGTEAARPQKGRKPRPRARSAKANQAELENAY
Assay: BLI
MEASURED PROPERTY: Kd (nM)
# unit: nM | format: bare number

Name the reported Kd value associated with the binder CGGGGTGTGGGTTCGTCGTTAGCTTGATTTGGCAGCTGCC (ssDNA) [Aptscl56]
68.6

Cited source: paper PMC10914587
